Target: Human serum albumin (human) (UniProt P02768)
Sequence (P02768 25-609 limits assumed): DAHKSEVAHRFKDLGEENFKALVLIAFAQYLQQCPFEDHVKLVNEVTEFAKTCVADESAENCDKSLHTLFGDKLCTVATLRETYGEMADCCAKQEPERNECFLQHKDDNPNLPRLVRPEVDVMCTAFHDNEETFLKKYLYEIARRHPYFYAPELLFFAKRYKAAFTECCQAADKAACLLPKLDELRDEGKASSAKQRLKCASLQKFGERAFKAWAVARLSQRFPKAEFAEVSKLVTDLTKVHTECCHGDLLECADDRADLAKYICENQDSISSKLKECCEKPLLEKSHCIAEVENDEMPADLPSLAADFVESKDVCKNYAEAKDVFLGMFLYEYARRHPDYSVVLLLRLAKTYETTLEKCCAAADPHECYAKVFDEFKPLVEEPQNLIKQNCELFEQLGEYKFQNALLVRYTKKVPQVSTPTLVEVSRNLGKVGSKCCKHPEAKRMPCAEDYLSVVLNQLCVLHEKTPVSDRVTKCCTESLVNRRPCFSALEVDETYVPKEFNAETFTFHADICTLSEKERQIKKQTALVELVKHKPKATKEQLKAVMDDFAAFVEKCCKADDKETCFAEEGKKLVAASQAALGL
Assay: ELISA, expression medium of VNAR-hFc on coated protein (negative control)
measured.property: Binding [relative units] (relative units)
No unit in the answer, please; the number alone is enough.

Solved entries:
binder	number
VNAR clone G6 fused N-terminally to human IgG1 Fc (VNAR-hFc) (Fc fusion, not shown: a dimerising Fc or GST) ARVDQTPQTITKEEGESLTINCVLRVETRALASTSWYRKKSGSTREETISKGGRYVETVNSGSKSFSLRINDLTVEDSGTYRCNVYIRHYSEFTQAPFRDVYGDGTAVTVNA	0.052
VNAR clone C6 fused N-terminally to human IgG1 Fc (VNAR-hFc) (Fc fusion, not shown: a dimerising Fc or GST) ARVDQTPQTITKETGESLTINCVLRDSNCALSSTYWYRKKSGSTNEALISKGGRYVETVNSGSKSFSLRINDLTVEDSGTYRCNVVYDLRDDCFFRDVYGGGTAVTVNA	0.052
VNAR clone E12 fused N-terminally to human IgG1 Fc (VNAR-hFc) (Fc fusion, not shown: a dimerising Fc or GST) ARVDQTPQTITKEEGESLTINCVLRTQDPALASTSWYRKKSGSTREETISKGGRYVETVNSGSKSFSLRINDLTVEDSGTYRCNVYFLLAPTKTKLQGIDVYGDGTAVTVNA	0.056
VNAR clone H7 fused N-terminally to human IgG1 Fc (VNAR-hFc) (Fc fusion, not shown: a dimerising Fc or GST) ARVDQTPQTITKEEGESLTINCVLRYNNPALASTSWYRKKSGSTREETISKGGRYVETVNSGSKSFSLRINDLTVEDSGTYRCNVYFFPSFLVDKLQSHDVYGDGTAVTVNA	0.072
VNAR clone H6 fused N-terminally to human IgG1 Fc (VNAR-hFc) (Fc fusion, not shown: a dimerising Fc or GST) ARVDQTPQTITKEEGESLTINCVLRTHSNALASTSWYRKKSGSTREETISKGGRYVETVNSGSKSFSLRINDLTVEDSGTYRCNVYAFLEIQPNIYHEFDVYGDGTAVTVNA	0.06

Reported Binding [relative units] (relative units) for VNAR clone G10 fused N-terminally to human IgG1 Fc (VNAR-hFc) (Fc fusion, not shown: a dimerising Fc or GST) ARVDQTPQTITKETGESLTINCVLRDSNCALSSTYWYRKKSGSTNEENISKGGRYVETVNSGSKSFSLKINDLTVEDSGTYRCKVVFKLFSGRACAGEKDVYGGGTVVTVNA : what is it? 0.051

Follow-up item: VNAR clone H12 fused N-terminally to human IgG1 Fc (VNAR-hFc) (Fc fusion, not shown: a dimerising Fc or GST) ARVDQTPQTITKEEGESLTINCVLRVHGCALASTSWYRKKSGSTREETISKGGRYVETVNSGSKSFSLRINDLTVEDSGTYRCNVYGLSFVDIEGVKKIDVYGDGTAVTVNA 0.055

Param item: VNAR clone D1 fused N-terminally to human IgG1 Fc (VNAR-hFc) (Fc fusion, not shown: a dimerising Fc or GST) ARVDQTPQTITKEEGESLTINCVLRHNYSALASTSWYRKKSGSTREETISKGGRYVETVNSGSKSFSLRINDLTVEDSGTYRCNVYGISFIEEKIRYDFDVYGDGTAVTVNA 0.074

And for VNAR clone F12 fused N-terminally to human IgG1 Fc (VNAR-hFc) (Fc fusion, not shown: a dimerising Fc or GST) ARVDQTPQTITKEEGESLTINCVLRVHGRALASTSWYRKKSGSTREETISKGGRYVETVNSGSKSFSLRINDLTVEDSGTYRCNVYGLSFGDIEGVKKIDVYGDGTAVTVNA ? 0.112

Next record, please: VNAR clone A8 fused N-terminally to human IgG1 Fc (VNAR-hFc) (Fc fusion, not shown: a dimerising Fc or GST) ARVDQTPQTITKEEGESLTINCVLRRNFQLASTSWYRKKSGSTREETISKGGRYVETVNSGSKSFSLRINDLTVEDSGTYRCNVYGFVEFAKNIVEFIDVYGDGTAVTVNA 0.065

What would you report for VNAR clone G12 fused N-terminally to human IgG1 Fc (VNAR-hFc) (Fc fusion, not shown: a dimerising Fc or GST) ARVDQTPQTITKETGESLTINCVLRDSNCALSSTYWYRKKSGSTNEALISKGGRYVETVNSGSKSFSLRINDLTVEDSGTYRCNVVQDLRDDCFFRDVYGGGTAVTVNA ? 0.054

Do the same for VNAR clone F1 fused N-terminally to human IgG1 Fc (VNAR-hFc) (Fc fusion, not shown: a dimerising Fc or GST) ARVDQTPQTITKEEGESLTINCVLRVHGRALASTSWYRKKSGSTREETISKGGRYVETVNSGSKSFSLRINDLTVEDSGTYRCNVYGLSSGDIEGVKKIDVYGDGTAVTVNA please 0.073

Can you check VNAR clone G3 fused N-terminally to human IgG1 Fc (VNAR-hFc) (Fc fusion, not shown: a dimerising Fc or GST) ARVDQTPQTITKETGESLTINCVLRDNNCALSTTYWYRKKSGSTNEENISKGGRYVETVNSGSKSFSLRINDLTVEDSGTYRCKVHFFPSFCNSTSIRSVDVYGGGTVVTVNA next? 0.053

Input VNAR clone H8 fused N-terminally to human IgG1 Fc (VNAR-hFc) (Fc fusion, not shown: a dimerising Fc or GST) ARVDQTPQTITKETGESLTINCVLRDSNCALPSTYWYRKKSGSTNEESISKGGRYVETVNSGSKSFSLRINDLVVEDSGTYRCKVGNYCIRLCYDMKFAVDVYGGGTAVTVNA 0.059

// same read-out, input: VNAR clone H7A fused N-terminally to human IgG1 Fc (VNAR-hFc) (Fc fusion, not shown: a dimerising Fc or GST) PGVDQTEQTIKKEEGESVTIKCVMRVKYPALASTSRYRKKSGSREETISKGGRYVETVNYSSKSISVRINDMTVEDSGRYRCNVYEEYAVDCDALVYQDVYGDGTAVTVNA 0.054

Same question, VNAR clone B12 fused N-terminally to human IgG1 Fc (VNAR-hFc) (Fc fusion, not shown: a dimerising Fc or GST) ARVDQTPRSVTKETGESLTINCVLRDASYALGSTCWYRKKSGSTNEESISKGGRYVETVNSGSKSFSLRINDLTVEDGGTYRCGVARGWRTLNYLCDVRTGEWSCVWRAAACGDGTAVTVNA this time 0.081

What do we get for VNAR clone F11 fused N-terminally to human IgG1 Fc (VNAR-hFc) (Fc fusion, not shown: a dimerising Fc or GST) ARVDQTPQTITKEEGESLTINCVLRGEFYALASTSWYRKKSGSTREETISKGGRYVETVNSGSKSFSLRINDLTVEDSGTYRCNVYGYRIFSPEVKGPNDVYGDGTAVTVNA ? 0.072
